- assayed-system: human delta-like ligand 3 (DLL3) on SHP77 cells (human) (UniProt Q9NYJ7)
- Sequence (Q9NYJ7 27-618, stated change not applied): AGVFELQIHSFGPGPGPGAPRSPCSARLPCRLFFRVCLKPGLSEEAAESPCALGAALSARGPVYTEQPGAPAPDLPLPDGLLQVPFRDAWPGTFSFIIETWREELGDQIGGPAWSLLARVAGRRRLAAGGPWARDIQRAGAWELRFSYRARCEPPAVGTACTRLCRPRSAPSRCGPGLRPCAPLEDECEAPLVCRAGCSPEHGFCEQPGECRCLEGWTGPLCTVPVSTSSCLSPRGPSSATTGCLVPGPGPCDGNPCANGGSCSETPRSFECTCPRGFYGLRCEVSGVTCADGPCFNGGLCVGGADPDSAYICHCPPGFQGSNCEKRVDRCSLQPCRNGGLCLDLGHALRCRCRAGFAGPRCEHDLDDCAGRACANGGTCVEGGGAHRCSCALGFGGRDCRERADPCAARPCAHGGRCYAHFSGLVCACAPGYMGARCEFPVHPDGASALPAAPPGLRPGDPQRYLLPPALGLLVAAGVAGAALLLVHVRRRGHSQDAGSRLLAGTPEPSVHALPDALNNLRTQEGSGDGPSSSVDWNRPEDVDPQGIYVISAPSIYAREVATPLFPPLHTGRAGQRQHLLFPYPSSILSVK
- protocol-description: FACS on SHP77 cells
Note to self: values exactly at 1000 MFI are condition met. So MFI at 100 nM at or above 1000 MFI is condition met, below is condition not met.

[ask] API: above_or_equal(metric=MFI at 100 nM, cutoff=1000 MFI) for item Hab009VL1aVH1-hFc (scFv, part only; not given: scFv linker and human IgG1 Fc, V domains shown, not shown: another chain or arm of the molecule; a dimerising Fc or GST; small tags and cut ends) VL: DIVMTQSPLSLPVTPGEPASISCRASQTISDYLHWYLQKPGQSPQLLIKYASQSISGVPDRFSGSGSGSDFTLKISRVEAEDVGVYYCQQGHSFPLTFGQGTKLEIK VH: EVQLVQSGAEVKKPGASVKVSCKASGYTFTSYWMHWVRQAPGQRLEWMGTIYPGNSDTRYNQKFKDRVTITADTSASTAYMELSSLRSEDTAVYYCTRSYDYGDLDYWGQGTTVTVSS
[reply] condition not met

[ask] Follow-up entry: Hab015VL5VH1a-hFc (scFv, part only; not given: scFv linker and human IgG1 Fc, V domains shown, not shown: another chain or arm of the molecule; a dimerising Fc or GST; small tags and cut ends) VL: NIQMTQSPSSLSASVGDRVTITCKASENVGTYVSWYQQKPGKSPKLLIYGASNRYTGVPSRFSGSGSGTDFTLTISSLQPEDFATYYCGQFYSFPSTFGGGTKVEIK VH: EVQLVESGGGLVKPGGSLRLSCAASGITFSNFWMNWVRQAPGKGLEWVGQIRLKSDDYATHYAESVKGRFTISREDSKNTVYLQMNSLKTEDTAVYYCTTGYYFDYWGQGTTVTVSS
[reply] condition met

[ask] Follow-up entry: Hab006VL4VH2-hFc (scFv, part only; not given: scFv linker and human IgG1 Fc, V domains shown, not shown: another chain or arm of the molecule; a dimerising Fc or GST; small tags and cut ends) VL: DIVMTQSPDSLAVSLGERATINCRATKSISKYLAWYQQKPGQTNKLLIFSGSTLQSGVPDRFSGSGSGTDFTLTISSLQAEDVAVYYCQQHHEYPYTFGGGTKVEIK VH: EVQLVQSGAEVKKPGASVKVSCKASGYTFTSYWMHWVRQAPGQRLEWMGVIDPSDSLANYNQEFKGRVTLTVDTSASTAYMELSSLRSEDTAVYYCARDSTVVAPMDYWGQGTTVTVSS
[reply] condition met

[ask] Follow-up entry: Hab008L3H2a-hFc (scFv, part only; not given: VL-VH linker and human IgG1 Fc, V domains shown, not shown: another chain or arm of the molecule; a dimerising Fc or GST; small tags and cut ends) VL: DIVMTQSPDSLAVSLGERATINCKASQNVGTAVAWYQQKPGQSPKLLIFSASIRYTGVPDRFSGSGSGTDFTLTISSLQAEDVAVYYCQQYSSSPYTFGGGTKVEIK VH: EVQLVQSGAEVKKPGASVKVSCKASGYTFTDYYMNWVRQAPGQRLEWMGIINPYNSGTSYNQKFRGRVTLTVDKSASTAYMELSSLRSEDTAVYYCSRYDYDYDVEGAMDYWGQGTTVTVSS
[reply] condition not met

[ask] Follow-up entry: Hab008L1H2a-hFc (scFv, part only; not given: VL-VH linker and human IgG1 Fc, V domains shown, not shown: another chain or arm of the molecule; a dimerising Fc or GST; small tags and cut ends) VL: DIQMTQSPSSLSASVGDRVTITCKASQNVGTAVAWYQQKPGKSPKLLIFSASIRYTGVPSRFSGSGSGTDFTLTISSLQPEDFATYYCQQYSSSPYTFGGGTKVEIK VH: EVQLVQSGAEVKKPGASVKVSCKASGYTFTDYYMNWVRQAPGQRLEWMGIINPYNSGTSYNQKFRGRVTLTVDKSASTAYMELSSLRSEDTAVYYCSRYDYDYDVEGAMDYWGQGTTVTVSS
[reply] condition not met

[ask] Follow-up entry: BI3 (antibody, human IgG1, kappa, V domains shown) VH: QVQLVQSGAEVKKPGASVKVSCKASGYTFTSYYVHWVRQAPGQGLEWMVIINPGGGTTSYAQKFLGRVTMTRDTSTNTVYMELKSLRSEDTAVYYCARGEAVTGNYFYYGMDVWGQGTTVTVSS VL: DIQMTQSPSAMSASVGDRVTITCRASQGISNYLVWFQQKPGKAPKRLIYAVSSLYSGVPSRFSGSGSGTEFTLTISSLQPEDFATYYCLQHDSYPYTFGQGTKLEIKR
[reply] condition not met
